These data points were gathered from PubChem BioAssay AID2060897.

# Tested on: 966289-007-R4-J1-PDC complex spheroid viability
# assay summary: Anticancer human tumor 966289-007-R4-J1-PDC patient-derived pancreatic adenocarcinoma cell line growth inhibition [RAS]
# assay context: second compound 0.0949 µM; first compound 0.1 µM; active compounds read low
assay endpoint: viability, T/C

These recorded examples may help you get a feel for the data.
[
  {
    "compound": "CC(C)n1nc(-c2ccc3oc(N)nc3c2)c2c(N)ncnc21 + CCn1c(-c2cccnc2C(C)OC)c2c3cc(ccc31)N1CCOC(CC(NC(=O)C(C(C)C)N(C)C(=O)C3(F)CCN(C(=O)C#CC(C)(C)N(C)C)CC3)C(=O)N3CCCC(N3)C(=O)OCC(C)(C)C2)C1",
    "assay system": "966289-007-R4-J1-PDC complex spheroid viability",
    "viability, T/C": "18.2%"
  },
  {
    "compound": "NC1c2ccccc2OC12CCN(c1cnc3c(N4CCCc5ncccc54)n[nH]c3n1)CC2 (centres undefined) + CCn1c(-c2cc(N3CCN(C)CC3)cnc2C(C)OC)c2c3cc(ccc31)-c1csc(n1)CC(NC(=O)C1CC1C)C(=O)N1CCCC(N1)C(=O)OCC(C)(C)C2",
    "assay system": "966289-007-R4-J1-PDC complex spheroid viability",
    "viability, T/C": "122%"
  },
  {
    "compound": "CCC(CC)c1cc(NC2CCC(N)C2)n2nccc2n1 (centres undefined) + CCn1c(-c2cccnc2C(C)OC)c2c3cc(ccc31)N1CCOC(CC(NC(=O)C(C(C)C)N(C)C(=O)C3(F)CCN(C(=O)C#CC(C)(C)N(C)C)CC3)C(=O)N3CCCC(N3)C(=O)OCC(C)(C)C2)C1",
    "assay system": "966289-007-R4-J1-PDC complex spheroid viability",
    "viability, T/C": "106%"
  }
]

Now for another entry.
Lab request: please report viability, T/C under test system 966289-007-R4-J1-PDC complex spheroid viability for CCN1CCN(Cc2ccc(Nc3ncc(F)c(-c4cc(F)c5nc(C)n(C(C)C)c5c4)n3)nc2)CC1 + CCn1c(-c2cccnc2C(C)OC)c2c3cc(ccc31)N1CCOC(CC(NC(=O)C(C(C)C)N(C)C(=O)C3(F)CCN(C(=O)C#CC(C)(C)N(C)C)CC3)C(=O)N3CCCC(N3)C(=O)OCC(C)(C)C2)C1
99.8%

###

# Tested on: 966289-007-R4-J1-PDC complex spheroid viability
# assay summary: Anticancer human tumor 966289-007-R4-J1-PDC cell line growth inhibition [RAS];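 further: spheroids exposed to agents for one week before readout; percent viability relative to DMSO vehicle control wells as 100%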
# assay context: second compound 0.1 µM; first compound 0.01 µM; active compounds read low
Entries and their viability, T/C values follow.
Quick reminder: number only, in %, skip the unit.

Recorded viability, T/C, per entry:
[
  {
    "compound": "O=C(c1ccc(F)c(F)c1Nc1ccc(I)cc1F)N1CC(O)([C@@H]2CCCCN2)C1 + C=CC(=O)N1CCN(c2nc(OCC3CCCN3C)nc3c(F)c(-c4nc(N)cc(C)c4C(F)(F)F)c(Cl)cc23)C(C)C1",
    "assay system": "966289-007-R4-J1-PDC complex spheroid viability",
    "quantity unit": "%",
    "obs value": 70.3
  },
  {
    "compound": "Nc1ccn(C2OC(CO)C(O)C2(F)F)c(=O)n1 (stereo unspecified) + C#Cc1c(F)ccc2cc(O)cc(-c3ncc4c(N5CC6CCC(C5)N6)nc(OCC56CCCN5CC(F)C6)nc4c3F)c12",
    "assay system": "966289-007-R4-J1-PDC complex spheroid viability",
    "quantity unit": "%",
    "obs value": 58.5
  },
  {
    "compound": "Nc1ccn(C2OC(CO)C(O)C2(F)F)c(=O)n1 (stereo unspecified) + C=CC(=O)N1CCN(c2nc(OCC3CCCN3C)nc3c(F)c(-c4nc(N)cc(C)c4C(F)(F)F)c(Cl)cc23)C(C)C1",
    "assay system": "966289-007-R4-J1-PDC complex spheroid viability",
    "quantity unit": "%",
    "obs value": 27.3
  }
]

Any idea what viability, T/C was measured for CCN1CCN(Cc2ccc(Nc3ncc(F)c(-c4cc(F)c5nc(C)n(C(C)C)c5c4)n3)nc2)CC1 + C#Cc1c(F)ccc2cc(O)cc(-c3ncc4c(N5CC6CCC(C5)N6)nc(OCC56CCCN5CC(F)C6)nc4c3F)c12 ?
108

Param item = C=CC(=O)N1CCN(c2nc(OCC3CCCN3C)nc3c(F)c(-c4nc(N)cc(C)c4C(F)(F)F)c(Cl)cc23)C(C)C1 (stereo unspecified) + C#Cc1c(F)ccc2cc(O)cc(-c3ncc4c(N5CC6CCC(C5)N6)nc(OCC56CCCN5CC(F)C6)nc4c3F)c12 ; retrieve measured viability, T/C.
107

Give its viability, T/C value. Item: CC(C)n1nc(-c2ccc3oc(N)nc3c2)c2c(N)ncnc21 + C=CC(=O)N1CCN(c2nc(OCC3CCCN3C)nc3c(F)c(-c4nc(N)cc(C)c4C(F)(F)F)c(Cl)cc23)C(C)C1
106

###

Measured viability, T/C accompanies every entry in the list below.
# Tested on: 966289-007-R4-J1-PDC complex spheroid viability
# assay summary: Anticancer human tumor 966289-007-R4-J1-PDC cell line growth inhibition [RAS];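 further: spheroids exposed to agents for one week before readout; percent viability relative to DMSO vehicle control wells as 100%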
# assay context: second compound 0.316 µM; first compound 0.316 µM; active compounds read low
# Text: RAS pathway inhibitors in Combinations in Complex Spheroids A high-throughput screen of multi-cell type tumor spheroids was designed to identify active combinations of RAS pathway inhibitors and targeted small molecules. Complex spheroids include a stromal component modeled by human endothelial cells (HUVEC) and fibroblasts modeled by human mesenchymal stem cells (MSCs). […] Compounds. […] If the clinical Cmax for an agent had not been determined, the highest concentration tested was 10 microM. […]
Quick note: give the figure in %, leave out the unit.

Example entries begin here.
[
  {
    "compound": "CCN1CCN(Cc2ccc(Nc3ncc(F)c(-c4cc(F)c5nc(C)n(C(C)C)c5c4)n3)nc2)CC1 + C=CC(=O)N1CCN(c2nc(OCC3CCCN3C)nc3c(F)c(-c4nc(N)cc(C)c4C(F)(F)F)c(Cl)cc23)C(C)C1",
    "assay system": "966289-007-R4-J1-PDC complex spheroid viability",
    "obs value": 89.4
  },
  {
    "compound": "Nc1ccn(C2OC(CO)C(O)C2(F)F)c(=O)n1 (stereo not drawn) + C#Cc1c(F)ccc2cc(O)cc(-c3ncc4c(N5CC6CCC(C5)N6)nc(OCC56CCCN5CC(F)C6)nc4c3F)c12",
    "assay system": "966289-007-R4-J1-PDC complex spheroid viability",
    "obs value": 1.22
  }
]

Lab request: please report viability, T/C under test system 966289-007-R4-J1-PDC complex spheroid viability for CC(C)NCC(C(=O)N1CCN(c2ncnc3c2C(C)CC3O)CC1)c1ccc(Cl)cc1 (stereo not drawn) + C=CC(=O)N1CCN(c2nc(OCC3CCCN3C)nc3c(F)c(-c4nc(N)cc(C)c4C(F)(F)F)c(Cl)cc23)C(C)C1
127

###

# System: 966289-007-R4-J1-PDC complex spheroid viability
# assay summary: Anticancer human tumor 966289-007-R4-J1-PDC cell line growth inhibition [RAS]; active = viability on the fitted dose curve at most 10% of control; inactive = the rest;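 further: spheroids exposed to agents for one week before readout; percent viability relative to DMSO vehicle control wells as 100%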
# assay context: second compound 1 µM; first compound 0.316 µM
I would appreciate it if you answered using one of these outcomes: active, inactive

Here are 10 molecules together with their reported answers.
[
  {
    "molecule": "C[C@@H](NC(=O)c1ncnc(N)c1Cl)c1ncc(C(=O)Nc2cc(C(F)(F)F)c(Cl)cn2)s1 + C=CC(=O)N1CCN(c2nc(OCC3CCCN3C)nc3c(F)c(-c4nc(N)cc(C)c4C(F)(F)F)c(Cl)cc23)C(C)C1",
    "category": "inactive"
  },
  {
    "molecule": "CCC(CC)c1cc(NC2CCC(N)C2)n2nccc2n1 (stereo unspecified) + C#Cc1c(F)ccc2cc(O)cc(-c3ncc4c(N5CC6CCC(C5)N6)nc(OCC56CCCN5CC(F)C6)nc4c3F)c12",
    "category": "inactive"
  },
  {
    "molecule": "CC1(O)CCCC1n1c(=O)c(C(F)F)cc2cnc(NC3CCN(S(C)(=O)=O)CC3)nc21 (stereo unspecified) + C#Cc1c(F)ccc2cc(O)cc(-c3ncc4c(N5CC6CCC(C5)N6)nc(OCC56CCCN5CC(F)C6)nc4c3F)c12",
    "category": "inactive"
  },
  {
    "molecule": "C=CC(=O)N1CCN(c2nc(OCC3CCCN3C)nc3c(F)c(-c4nc(N)cc(C)c4C(F)(F)F)c(Cl)cc23)C(C)C1 (stereo unspecified) + C#Cc1c(F)ccc2cc(O)cc(-c3ncc4c(N5CC6CCC(C5)N6)nc(OCC56CCCN5CC(F)C6)nc4c3F)c12",
    "category": "inactive"
  },
  {
    "molecule": "CCN1CCN(Cc2ccc(Nc3ncc(F)c(-c4cc(F)c5nc(C)n(C(C)C)c5c4)n3)nc2)CC1 + C=CC(=O)N1CCN(c2nc(OCC3CCCN3C)nc3c(F)c(-c4nc(N)cc(C)c4C(F)(F)F)c(Cl)cc23)C(C)C1",
    "category": "inactive"
  },
  {
    "molecule": "Nc1ccn(C2OC(CO)C(O)C2(F)F)c(=O)n1 (stereo unspecified) + C#Cc1c(F)ccc2cc(O)cc(-c3ncc4c(N5CC6CCC(C5)N6)nc(OCC56CCCN5CC(F)C6)nc4c3F)c12",
    "category": "active"
  },
  {
    "molecule": "Cc1nc(N2CCC3(CC2)COC(C)C3N)c(CO)nc1Sc1ccnc(N)c1Cl (stereo unspecified) + C=CC(=O)N1CCN(c2nc(OCC3CCCN3C)nc3c(F)c(-c4nc(N)cc(C)c4C(F)(F)F)c(Cl)cc23)C(C)C1",
    "category": "inactive"
  },
  {
    "molecule": "Cc1nc(N2CCC3(CC2)COC(C)C3N)c(CO)nc1Sc1ccnc(N)c1Cl (stereo unspecified) + C#Cc1c(F)ccc2cc(O)cc(-c3ncc4c(N5CC6CCC(C5)N6)nc(OCC56CCCN5CC(F)C6)nc4c3F)c12",
    "category": "inactive"
  },
  {
    "molecule": "CC(Nc1ccc2c(c1)OCCn1cc(N3C(=O)OCC3C(F)F)nc1-2)C(N)=O (stereo unspecified) + C=CC(=O)N1CCN(c2nc(OCC3CCCN3C)nc3c(F)c(-c4nc(N)cc(C)c4C(F)(F)F)c(Cl)cc23)C(C)C1",
    "category": "inactive"
  },
  {
    "molecule": "CC(=O)OC12COC1CC(O)C1(C)C(=O)C(O)C3=C(C)C(OC(=O)C(O)C(NC(=O)OC(C)(C)C)c4ccccc4)CC(O)(C(OC(=O)c4ccccc4)C21)C3(C)C (stereo unspecified) + C=CC(=O)N1CCN(c2nc(OCC3CCCN3C)nc3c(F)c(-c4nc(N)cc(C)c4C(F)(F)F)c(Cl)cc23)C(C)C1",
    "category": "inactive"
  }
]

Now look at this one.
Hi, do you know how CC(Nc1ccc2c(c1)OCCn1cc(N3C(=O)OCC3C(F)F)nc1-2)C(N)=O (stereo unspecified) + C#Cc1c(F)ccc2cc(O)cc(-c3ncc4c(N5CC6CCC(C5)N6)nc(OCC56CCCN5CC(F)C6)nc4c3F)c12 came out in this test?
inactive
